Consider the following compounds and their measured IC50 readings.
# Test system: IL-17RA/IL17RC dimerization induced by IL-17A (Homo sapiens)
# Sequence (Q16552 24-155): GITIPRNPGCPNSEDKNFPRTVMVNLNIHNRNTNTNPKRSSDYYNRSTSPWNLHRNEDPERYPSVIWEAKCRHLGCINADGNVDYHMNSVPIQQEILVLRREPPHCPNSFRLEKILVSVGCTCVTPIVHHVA
# Experiment summary: IL-17RA/IL17RC dimerization assay in response to IL-17A (PathHunter Cytokine Receptor Assay)
# Type: cell-based
# Condition info: IL-17A at EC80; read-out: IC50 in IL-17RA/IL7RC dimerization assay
Residues, ends and D or L forms follow the SMILES beside them.

Worked cases, answers included:
{"Compound": "CC[C@H](C)[C@H](NC(C)=O)C(=O)N[C@@H](CCCCN)C(=O)N[C@H](C(=O)N[C@H](C(=O)N[C@H](C(=O)N1CCC[C@H]1C(=O)N[C@@H](C)C(=O)N[C@@H](CC(=O)O)C(=O)N[C@@H](CC(C)C)C(=O)N[C@@H](Cc1c[nH]c2ccccc12)C(=O)N[C@@H](CC(=O)O)C(=O)N[C@@H](Cc1c[nH]c2ccccc12)C(=O)N[C@H](C(=O)N[C@@H](CC(N)=O)C(=O)N[C@@H](CCCCN)C(N)=O)[C@@H](C)CC)[C@@H](C)CC)[C@@H](C)O)C(C)C [SEQ ID NO: 163] (Ac-IKVTIPADLWDWINK-NH2)", "Test system": "IL-17RA/IL17RC dimerization induced by IL-17A (Homo sapiens)", "IC50": "< 10 µM"}
{"Compound": "CC[C@H](C)[C@H](NC(=O)[C@@H](NC(=O)[C@H](Cc1ccccc1)NC(=O)[C@H](Cc1c[nH]cn1)NC(=O)[C@@H](NC(C)=O)C(C)C)[C@@H](C)O)C(=O)N1CCC[C@H]1C(=O)N[C@@H](CCC(N)=O)C(=O)N[C@@H](CC(=O)O)C(=O)N[C@@H](CC(C)C)C(=O)N[C@@H](Cc1ccc(O)cc1)C(=O)N[C@@H](CCC(=O)O)C(=O)N[C@@H](Cc1c[nH]c2ccccc12)C(=O)N[C@H](C(=O)N[C@@H](CCCNC(=N)N)C(=O)N[C@@H](CCCNC(=N)N)C(N)=O)C(C)C [SEQ ID NO: 126] (Ac-VHFTIPQDLYEWVRR-NH2)", "Test system": "IL-17RA/IL17RC dimerization induced by IL-17A (Homo sapiens)", "IC50": "< 0.5 µM"}
{"Compound": "CC[C@H](C)[C@H](NC(=O)[C@H](Cc1c[nH]c2ccccc12)NC(=O)[C@H](CC(=O)O)NC(=O)[C@H](Cc1c[nH]c2ccccc12)NC(=O)[C@H](CC(C)C)NC(=O)[C@H](CC(=O)O)NC(=O)[C@H](C)NC(=O)[C@@H]1CCCN1C(=O)[C@@H](NC(=O)[C@@H](NC(=O)[C@@H](NC(=O)[C@H](Cc1c[nH]cn1)NC(=O)CNC(C)=O)C(C)C)[C@@H](C)O)[C@@H](C)CC)C(=O)N[C@@H](CC(N)=O)C(=O)N[C@@H](CCCCN)C(N)=O [SEQ ID NO: 159] (Ac-GHVTIPADLWDWINK-NH2)", "Test system": "IL-17RA/IL17RC dimerization induced by IL-17A (Homo sapiens)", "IC50": "< 10 µM"}

Next compound, IC50 to be filled in.
Sample CC[C@H](C)[C@H](NC(C)=O)C(=O)N[C@@H](Cc1c[nH]cn1)C(=O)N[C@H](C(=O)N[C@H](C(=O)N[C@H](C(=O)N1CCC[C@H]1C(=O)N[C@@H](C)C(=O)N[C@@H](CC(=O)O)C(=O)N[C@@H](CC(C)C)C(=O)N[C@@H](Cc1c[nH]c2ccccc12)C(=O)N[C@@H](CC(=O)O)C(=O)N[C@@H](Cc1c[nH]c2ccccc12)C(=O)N1CCC[C@H]1C(=O)N[C@@H](CC(N)=O)C(=O)N[C@@H](CCCCN)C(N)=O)[C@@H](C)CC)[C@@H](C)O)C(C)C [SEQ ID NO: 217] (Ac-IHVTIPADLWDWPNK-NH2) — what was its IC50?
< 10 µM
